# Tested on: OVCAR-3 ovarian
# TEST DESCRIPTION: NCI tumour cell line growth inhibition, 48 h
MEASURE: GI50

COMPOUND	OBSERVED RESULT
Cc1c2ccc(N(C)c3ccnc(Nc4cccc(S(N)(=O)=O)c4)n3)cc2nn1C	14.2 µM
CCN(CC)CCCC(C)Nc1c2ccc(C)cc2nc2ccc(OC)cc12 (configuration not stated)	1.75 µM
CCN(CCNc1ccc(C)c2sc3ccccc3c(=O)c12)CC(C)(C)O	13.1 µM
N#C[C@@H]1C(n2ccc(N)nc2=O)O[C@H](CO)[C@H]1O (some centres not stated)	> 100 µM
Cc1cc(N/N=C/c2nc(-c3ccc(Cl)cc3)oc2C)c2cc(Cl)ccc2n1	1.87 µM
COc1cc(/C=C2/N=C(c3ccccc3)N(C3=NNC4(C(=O)N3)c3ccccc3-c3ccccc34)NC2=O)ccc1O	24.8 µg/mL
CC(=O)Nc1ccc(S(=O)(=O)NNC(=O)c2cccnc2Nc2ccc(Cl)cc2)cc1	3.73 µM

The measurements presented in this section are drawn from PubChem BioAssay (NCI).
